All values here come from paper PMC8411522.

Target: CYP2C9 (Homo sapiens)
Sequence (P11712 whole entry): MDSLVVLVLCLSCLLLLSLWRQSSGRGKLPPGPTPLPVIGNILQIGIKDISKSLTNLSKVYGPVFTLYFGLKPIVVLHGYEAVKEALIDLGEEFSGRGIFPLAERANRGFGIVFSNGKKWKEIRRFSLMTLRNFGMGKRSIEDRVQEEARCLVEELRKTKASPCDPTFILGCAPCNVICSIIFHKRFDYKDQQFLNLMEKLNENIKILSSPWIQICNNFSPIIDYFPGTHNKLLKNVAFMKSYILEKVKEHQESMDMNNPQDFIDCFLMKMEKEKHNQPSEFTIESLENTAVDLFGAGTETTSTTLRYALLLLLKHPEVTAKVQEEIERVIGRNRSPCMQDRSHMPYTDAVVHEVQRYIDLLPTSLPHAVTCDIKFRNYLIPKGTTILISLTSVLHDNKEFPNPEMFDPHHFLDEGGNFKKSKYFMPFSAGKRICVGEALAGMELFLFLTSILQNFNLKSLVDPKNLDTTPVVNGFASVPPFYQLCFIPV
measure: pKi
One number for each entry, as −log10 of the molar value.

Please give the measured pKi for this compound: COc1c(O)c(C)cc2c1C(=O)c1c(O)cccc1C2=O 5.26
